Test system: BDF1 mice, L1210 Methyl-GAG-resistant leukemia, survival T/C
ASSAY REMARKS: NCI In Vivo Anticancer Drug Screen. Data for tumor model L1210 Leukemia resistant to Methyl-GAG; NSC 32946 (subcutaneous) in B6D2F1 (BDF1) mice
MEASUREMENT CONTEXT: endpoint: mean survival time; dose: 12.5 mg/kg/injection; schedule: Q01DX Z (ip); vehicle: saline; higher = longer survival
Toxic doses and inconclusive results are not listed.
ATTRIBUTE MEASURED: T/C

1) CN(N=O)C(N)=O | 115 % of control
2) NC(Cc1ccc(N(CCCl)CCCl)cc1)C(=O)O (centres undefined) | 113 % of control
3) Cn1cc(NC(=O)c2cc(NC(=O)CN=C(N)N)cn2C)cc1C(=O)NCCC(=N)N | 102 % of control
4) CN(N=O)C(=O)NC(C=O)C(O)C(O)C(O)CO (centres undefined) | 101 % of control

* * *

System: BDF1 mice, L1210 Methyl-GAG-resistant leukemia, survival T/C
ASSAY REMARKS: NCI In Vivo Anticancer Drug Screen. Data for tumor model L1210 Leukemia resistant to Methyl-GAG; NSC 32946 (subcutaneous) in B6D2F1 (BDF1) mice
MEASUREMENT CONTEXT: endpoint: mean survival time; dose: 125.0 mg/kg/injection; schedule: Q01DX Z (ip); vehicle: saline; higher = longer survival
Inconclusive results and toxic doses are left out.
Measured T/C, listed per entry for reference.
ATTRIBUTE MEASURED: T/C

1) CC(=O)N(C)C | 100 % of control
2) C[C@H](N)C(=O)N[C@@H]1[C@H]2C(=C(O)C[C@@H](O)[C@@H]2O)C(=O)O[C@@H]1C | 102 % of control
3) CN(C)CC(=O)c1ccc(O)c(O)c1 | 99 % of control
4) CCOC(N)=O | 99 % of control

* * *

System: BDF1 mice, L1210 Methyl-GAG-resistant leukemia, survival T/C
ASSAY REMARKS: NCI In Vivo Anticancer Drug Screen. Data for tumor model L1210 Leukemia resistant to Methyl-GAG; NSC 32946 (subcutaneous) in B6D2F1 (BDF1) mice
MEASUREMENT CONTEXT: endpoint: mean survival time; dose: 1000.0 mg/kg/injection; schedule: Q01DX Z (ip); vehicle: carboxymethylcellulose (CMC); higher = longer survival
Inconclusive results and toxic doses are left out.
ATTRIBUTE MEASURED: T/C

1. O=c1[nH]c(=O)n(C2CC(O)C(CO)O2)cc1Br (stereo not given) | 120 % of control
2. O=CCC(O)C(O)C(O)CO (stereo not given) | 108 % of control
3. O=CN(O)CC(=O)O | 105 % of control
4. O=c1cn[nH]c(=O)[nH]1 | 112 % of control
5. OCC1OC(n2cnc3c(Cl)ncnc32)C(O)C1O (stereo not given) | 91 % of control

* * *

Tested on: BDF1 mice, L1210 Methyl-GAG-resistant leukemia, survival T/C
ASSAY REMARKS: NCI In Vivo Anticancer Drug Screen. Data for tumor model L1210 Leukemia resistant to Methyl-GAG; NSC 32946 (subcutaneous) in B6D2F1 (BDF1) mice
MEASUREMENT CONTEXT: endpoint: mean survival time; dose: 25.0 mg/kg/injection; schedule: Q01DX Z (ip); vehicle: water
Procedure: The antitumor activity of compounds was measured in mice bearing transplantable tumors. Survival or tumor size were measured and the results are expressed as the measurement made in the treated group (T) divided by the measurement made in the vehicle treated control group (C). The tumor model used in this assay is L1210 Leukemia resistant to Methyl-GAG; NSC 32946 (subcutaneous) in B6D2F1 (BDF1) mice
Toxic doses and inconclusive results are not listed. Rule for the calls: active = survival T/C of 150% or more; inactive = T/C below 125% in these data.
Possible outcomes: active, inactive

1) C[C@@H]1C[C@@H]([C@H](O)CC2CC(=O)NC(=O)C2)C(=O)[C@@H](C)C1 | active
2) CN(C)c1ccc(/C=C/c2ccnc3ccccc23)cc1 | inactive
3) O=C(Nc1ccc(C2=NCCN2)cc1)c1cccc(C(=O)Nc2ccc(C3=NCCN3)cc2)c1 | active
4) CN(C)c1ccc(/C=C\c2ccnc3ccccc23)cc1 | inactive

* * *

Measured T/C, listed per entry for reference.
Test system: BDF1 mice, L1210 Methyl-GAG-resistant leukemia, survival T/C
ASSAY REMARKS: NCI In Vivo Anticancer Drug Screen. Data for tumor model L1210 Leukemia resistant to Methyl-GAG; NSC 32946 (subcutaneous) in B6D2F1 (BDF1) mice
MEASUREMENT CONTEXT: endpoint: mean survival time; dose: 1.6 mg/kg/injection; schedule: Q01DX Z (ip); vehicle: carboxymethylcellulose (CMC); higher = longer survival
Inconclusive results and toxic doses are left out.
ATTRIBUTE MEASURED: T/C

1. C[n+]1c2ccccc2nc2c(N)cc(N)cc21 | 101 % of control
2. Nc1ncnc2[nH]ncc12 | 100 % of control
3. CN(C)c1ccc(Nc2c3ccccc3nc3ccccc23)cc1 | 105 % of control
4. Cn1c(N)nc2nc[nH]c2c1=S | 98 % of control

* * *

Measured T/C, listed per entry for reference.
System: BDF1 mice, L1210 Methyl-GAG-resistant leukemia, survival T/C
ASSAY REMARKS: NCI In Vivo Anticancer Drug Screen. Data for tumor model L1210 Leukemia resistant to Methyl-GAG; NSC 32946 (subcutaneous) in B6D2F1 (BDF1) mice
MEASUREMENT CONTEXT: endpoint: mean survival time; dose: 10.0 mg/kg/injection; schedule: Q01DX Z (ip); vehicle: carboxymethylcellulose (CMC); higher = longer survival
Inconclusive results and toxic doses are left out.
ATTRIBUTE MEASURED: T/C

1) CC1CCOS(=O)O1 (stereo not given) | 97 % of control
2) COC12C(COC(N)=O)C3=C(C(=O)C(C)=C(N)C3=O)N1CC1C2N1C (stereo not given) | 122 % of control
3) CC(CCC(C)OS(C)(=O)=O)OS(C)(=O)=O (stereo not given) | 87 % of control
4) N#[N+]c1cnc([O-])[nH]c1=O | 88 % of control
5) NC(Cc1ccc(N(CCCl)CCCl)cc1)C(=O)O (stereo not given) | 120 % of control

* * *

System: BDF1 mice, L1210 Methyl-GAG-resistant leukemia, survival T/C
ASSAY REMARKS: NCI In Vivo Anticancer Drug Screen. Data for tumor model L1210 Leukemia resistant to Methyl-GAG; NSC 32946 (subcutaneous) in B6D2F1 (BDF1) mice
MEASUREMENT CONTEXT: endpoint: mean survival time; dose: 62.5 mg/kg/injection; schedule: Q01DX Z (ip); vehicle: carboxymethylcellulose (CMC); higher = longer survival
Inconclusive results and toxic doses are left out.
Measured T/C, listed per entry for reference.
ATTRIBUTE MEASURED: T/C

1. O=c1cn[nH]c(=O)[nH]1 | 96 % of control
2. O=c1[nH]c(=O)n(C2CC(O)C(CO)O2)cc1I (centres undefined) | 118 % of control
3. CCCCNc1ncnc2c1cnn2C | 100 % of control
4. CN(C)c1nc(N(C)C)nc(N(C)C)n1 | 100 % of control
5. Clc1ncnc2nc[nH]c12 | 90 % of control
6. O=CCC(O)C(O)C(O)CO (centres undefined) | 98 % of control
7. O=CN(O)CC(=O)O | 108 % of control
8. CCOC(=O)NP(=O)(N1CC1(C)C)N1CC1(C)C (centres undefined) | 95 % of control
9. OCC1OC(n2cnc3c(Cl)ncnc32)C(O)C1O (centres undefined) | 96 % of control

* * *

Measured T/C, listed per entry for reference.
System: BDF1 mice, L1210 Methyl-GAG-resistant leukemia, survival T/C
ASSAY REMARKS: NCI In Vivo Anticancer Drug Screen. Data for tumor model L1210 Leukemia resistant to Methyl-GAG; NSC 32946 (subcutaneous) in B6D2F1 (BDF1) mice
MEASUREMENT CONTEXT: endpoint: mean survival time; dose: 500.0 mg/kg/injection; schedule: Q01DX Z (ip); vehicle: carboxymethylcellulose (CMC); higher = longer survival
Toxic doses and inconclusive results are not listed.
ATTRIBUTE MEASURED: T/C

1) O=CCC(O)C(O)C(O)CO (configuration not stated) | 119 % of control
2) OCC1OC(n2cnc3c(=S)nc[nH]c32)C(O)C1O (configuration not stated) | 93 % of control
3) CN(C)c1nc(N(C)C)nc(N(C)C)n1 | 100 % of control
4) CCOC(=O)NP(=O)(N1CC1(C)C)N1CC1(C)C (configuration not stated) | 93 % of control
5) O=c1cn[nH]c(=O)[nH]1 | 114 % of control
6) O=c1[nH]c(=O)n(C2CC(O)C(CO)O2)cc1I (configuration not stated) | 117 % of control
7) O=c1[nH]c(=O)n(C2CC(O)C(CO)O2)cc1Br (configuration not stated) | 118 % of control
